Data origin, for the record: ChEMBL document CHEMBL1201862

target_or_system: Carboxy-terminal domain RNA polymerase II polypeptide A small phosphatase 1 (Homo sapiens, UniProt Q9GZU7)
Sequence (Q9GZU7 whole entry): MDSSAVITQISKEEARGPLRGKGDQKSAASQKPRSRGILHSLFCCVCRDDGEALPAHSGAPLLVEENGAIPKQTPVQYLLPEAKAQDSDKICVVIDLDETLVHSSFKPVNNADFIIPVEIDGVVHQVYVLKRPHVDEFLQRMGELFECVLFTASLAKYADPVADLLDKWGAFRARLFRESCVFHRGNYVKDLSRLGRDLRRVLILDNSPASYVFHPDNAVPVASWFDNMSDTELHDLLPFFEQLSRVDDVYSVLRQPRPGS
measurement_protocol: inhibitors of CTDSP1, concentration-response testing, biochemical assay, absorbance-based, actives from ultra-high-throughput screening (AID 540297)
Type: functional
The source made the active and inactive calls.
Here the recorded IC50 is given for each entry.

CSc1ccc(CCNC(=O)CSc2ccsc2[N+](=O)[O-])cc1 = 7.88 µM (active)
CC1(C)OC(=O)C(=Cc2ccc(-c3ccc(Cl)c(C(=O)O)c3)o2)C(=O)O1 = 4.62 µM (active)

Query: Consider the compound `COc1ccccc1/C=c1\sc2nc(-c3ccco3)nn2c1=O` . State its measured IC50.
Response: 5 µM (active)

Query: Consider the compound `Cc1ccc(-n2nc(-c3ccco3)cc2C(=O)O)cc1` . State its measured IC50.
Response: 3.82 µM (active)

Query: Consider the compound `COc1cc(/C=C2/SC(=S)N(CCC(=O)Nc3ccc(C(=O)O)cc3)C2=O)cc(OC)c1OC` . State its measured IC50.
Response: 6.91 µM (active)

---

target_or_system: Troponin, cardiac muscle (Homo sapiens, UniProt P19429+P45379+P63316)
measurement_protocol: Fluorescence-based biochemical high throughput dose response assay for activators of the calcium sensitivity of cardiac Regulated Thin Filaments (RTF). [Related pubchem assays (depositor defined):AID493008, AID493018, AID504382, AID504383]
Type: protein-complex assay
The source made the active and inactive calls.
measurement_type: EC50

Worked set:
Fc1ccc(-c2nnc(-c3ccc(Cl)cc3Cl)o2)cc1 = > 71.5 µM (inactive)
CN(Cc1ccccc1)C(=O)c1[nH]cnc1C(=O)NCc1ccccc1 = > 71.6 µM (inactive)
O=C(CSc1nc2cc(Br)c[nH]c-2n1)c1cccc([N+](=O)[O-])c1 = > 71.5 µM (inactive)

Attention now shifts to the item below.
Query: Report EC50 from Troponin, cardiac muscle (Homo sapiens, UniProt P19429+P45379+P63316) testing of `CCOc1ccc2ccccc2c1CNCCN1CCOCC1`
Response: > 71.5 µM (inactive)

---

measurement_protocol: control 3'UTR Renilla luciferase suppression, dose response, counter-screen for Shn3 inhibitor project, cell-based, Clone20-Shn3RL, cherry-picked (AID 624133)
Type: functional
Active and inactive are the calls of the source.
Here the recorded AC50 is given for each entry.

Worked set:
O=C(Cc1ccc(Cl)cc1Cl)Nc1ccncc1 = 6.34 µM (active)
CC(=O)N1CCc2c(sc(NC(=O)c3ccc([N+](=O)[O-])o3)c2C(N)=O)C1 = 13.1 µM (active)
CC(=O)Oc1ccc(OC(C)=O)c(SCCCCCCl)c1 = 7.84 µM (active)
NC(=O)CC(NC(=O)c1ccccc1)c1ccc(N2CCC(Cc3ccccc3)CC2)c([N+](=O)[O-])c1 (stereo not given) = 4.2 µM (active)

Attention now shifts to the item below.
Query: Consider the molecule `c1csc(CCNc2ncnc3sc4c(c23)CCC4)c1` . State its measured AC50.
Response: 0.988 µM (active)
